Attribution: patent US20230322924A1

biological target: T1, Human CD33 full length (human, UniProt P20138 18-364); assay: flow cytometry on HEK293F cells expressing human CD33
T1 construct: also called huCD33
T1 sequence (P20138 18-364 limits assumed): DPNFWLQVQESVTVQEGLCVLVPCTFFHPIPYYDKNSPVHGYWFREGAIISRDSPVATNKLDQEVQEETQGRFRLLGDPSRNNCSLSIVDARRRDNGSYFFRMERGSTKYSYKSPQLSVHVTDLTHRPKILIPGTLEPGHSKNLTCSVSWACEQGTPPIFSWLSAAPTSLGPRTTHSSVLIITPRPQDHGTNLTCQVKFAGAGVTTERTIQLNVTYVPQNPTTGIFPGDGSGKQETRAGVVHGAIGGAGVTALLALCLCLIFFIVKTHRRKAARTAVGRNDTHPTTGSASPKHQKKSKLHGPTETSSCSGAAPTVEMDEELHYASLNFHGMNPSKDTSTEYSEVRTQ
Entries and their MFI at 60 nM values follow.
Entry rule: numbers only, all in MFI.

Answered examples (2):
binder	recorded.metric	number
C33B912 (antibody, V domains shown, OMNIMouse-derived anti-CD33 mAb; also called C33H252/C33L118; C33F550) VH: EVQLVESGGGLVQPGRSLRLSCAASGFTFDDYAMHWVRQAPGKGLEWVSGIGWSGGSIVYADSVKGRFTISRDNAKNSLYLQMNSLRAEDTALYYCAKDSPYGDFFDYWGQGTLVTVSS VL: DIVMTQSPDSLAVSLGERATINCKSSQTVFYSSNNKNYLAWYQQKPGQPPKLLISWASTRKSGVPDRFSGSGSGTDFTLTVSSLQAEDVAVYYCQHYYSTPYTFGQGTKLEIK	MFI at 60 nM	237000
C33B910 (antibody, V domains shown, OMNIMouse-derived anti-CD33 mAb; same V regions as C33B902; also called C33H250/C33L116) VH: EVQLVESGGGLVQPGRSLRLSCAGSGFTFDDYAIHWVRQAPGKGLEWVSGLSWNGGNIGYADSVKGRFTISRDNAKNSLYLQLNSLKTEDTAFYYCAKDSPYGDYFDYWGQGTLVTVSS VL: DIQMTQSPSSEWASVGDRVTITCRASQGISSWLAWYQQKPGKAPKLLIYGASSWQSGVPSRFSGSGSGTDFTLTISSLQPEDFATYYCQQDNSFPYTFGQGTKLEIK	MFI at 60 nM	214

Please turn your attention to the following entry.
Query :: Report MFI at 60 nM for C33B909 (antibody, V domains shown, OMNIMouse-derived anti-CD33 mAb; same V regions as C33B901; The OMNIMouse mAbs were cloned into both IgG1 and IgG4 PAA; also called C33H249/C33L115) VH: EVQLVESGGGLVQPGRSLRLSCVASGFTFDDYAIHWVRQAPGKGLEWVSGLSWNGGNIGYADSVKGRFTISRDNAKNSLYLQMNSLKTEDTAFYYCTKDTPYGDYFDYWGQGTLVTVSS VL: DIQMTQSPSSVWASVGDRVTITCRASQGISSWLAWYQQQPGKAPNLLIYRSSSLQSGVPSRFSGSGSGTDFTLTISSLQPEDFATYYCQQDNSFPYTFGQGTKLEIK please.
Result :: 176
